assay: Crossover pharmacokinetic study in rats; format: in vivo, Sprague-Dawley rats; conditions: male, Sprague-Dawley, rat, plasma, intravenous, 1 mg/kg
measured_endpoint: Vd (L/kg)
State the answer as a number, implicitly in L/kg.

State its Vd for this compound: "Cc1nc(-c2cnc(NC(C)C)n(C)c2=O)ccc1Oc1ccnc(-c2cnn(C)c2)c1" 0.69

====

test: Mouse pharmacokinetics at steady state; type: in vivo, DBA/1 mice; conditions: female, DBA/1, mouse, plasma, po, 3 mg/kg
measured_endpoint: AUC(0-t) (ng·h/mL)
The reply should contain only the number, in ng·h/mL.

Supply measured AUC(0-t) of Cc1nc(-c2cnc(NC(C)C)n(C)c2=O)ccc1Oc1ccnc(-c2cnn(C)c2)c1 [Vimseltinib, vimseltinib] in your reply. 49300

====

assay: Crossover pharmacokinetic study in rats; assay type: in vivo, Sprague-Dawley rats; details: male, Sprague-Dawley, rat, plasma, intravenous, 1 mg/kg
measured_endpoint: clearance (mL/min/kg)
Number in mL/min/kg, nothing else.

Answer with the recorded clearance of "Cc1nc(-c2cnc(NC(C)C)n(C)c2=O)ccc1Oc1ccnc(-c2cnn(C)c2)c1" only. 0.5

====

assay: Crossover pharmacokinetic study in dogs; assay type: in vivo, Beagle dogs; settings: male, beagle, dog, plasma, intravenous, 1 mg/kg
measured_endpoint: Vd (L/kg)
Write it as a number; the unit L/kg goes unstated.

Look up and state reported Vd for "Cc1nc(-c2cnc(NC(C)C)n(C)c2=O)ccc1Oc1ccnc(-c2cnn(C)c2)c1" 1.33

====

assay: Crossover pharmacokinetic study in rats; format: in vivo, Sprague-Dawley rats; settings: male, Sprague-Dawley, rat, plasma, intravenous, 1 mg/kg
measured_endpoint: half-life (h)
Give the number; h is assumed, so skip it.

Give me measured half-life, please, for this compound: Cc1nc(-c2cnc(NC(C)C)n(C)c2=O)ccc1Oc1ccnc(-c2cnn(C)c2)c1 [Vimseltinib, vimseltinib] 14.2

====

molecular target: hERG channel (Homo sapiens); assay: Predictor hERG fluorescence polarization binding assay
Sequence (Q12809 whole entry): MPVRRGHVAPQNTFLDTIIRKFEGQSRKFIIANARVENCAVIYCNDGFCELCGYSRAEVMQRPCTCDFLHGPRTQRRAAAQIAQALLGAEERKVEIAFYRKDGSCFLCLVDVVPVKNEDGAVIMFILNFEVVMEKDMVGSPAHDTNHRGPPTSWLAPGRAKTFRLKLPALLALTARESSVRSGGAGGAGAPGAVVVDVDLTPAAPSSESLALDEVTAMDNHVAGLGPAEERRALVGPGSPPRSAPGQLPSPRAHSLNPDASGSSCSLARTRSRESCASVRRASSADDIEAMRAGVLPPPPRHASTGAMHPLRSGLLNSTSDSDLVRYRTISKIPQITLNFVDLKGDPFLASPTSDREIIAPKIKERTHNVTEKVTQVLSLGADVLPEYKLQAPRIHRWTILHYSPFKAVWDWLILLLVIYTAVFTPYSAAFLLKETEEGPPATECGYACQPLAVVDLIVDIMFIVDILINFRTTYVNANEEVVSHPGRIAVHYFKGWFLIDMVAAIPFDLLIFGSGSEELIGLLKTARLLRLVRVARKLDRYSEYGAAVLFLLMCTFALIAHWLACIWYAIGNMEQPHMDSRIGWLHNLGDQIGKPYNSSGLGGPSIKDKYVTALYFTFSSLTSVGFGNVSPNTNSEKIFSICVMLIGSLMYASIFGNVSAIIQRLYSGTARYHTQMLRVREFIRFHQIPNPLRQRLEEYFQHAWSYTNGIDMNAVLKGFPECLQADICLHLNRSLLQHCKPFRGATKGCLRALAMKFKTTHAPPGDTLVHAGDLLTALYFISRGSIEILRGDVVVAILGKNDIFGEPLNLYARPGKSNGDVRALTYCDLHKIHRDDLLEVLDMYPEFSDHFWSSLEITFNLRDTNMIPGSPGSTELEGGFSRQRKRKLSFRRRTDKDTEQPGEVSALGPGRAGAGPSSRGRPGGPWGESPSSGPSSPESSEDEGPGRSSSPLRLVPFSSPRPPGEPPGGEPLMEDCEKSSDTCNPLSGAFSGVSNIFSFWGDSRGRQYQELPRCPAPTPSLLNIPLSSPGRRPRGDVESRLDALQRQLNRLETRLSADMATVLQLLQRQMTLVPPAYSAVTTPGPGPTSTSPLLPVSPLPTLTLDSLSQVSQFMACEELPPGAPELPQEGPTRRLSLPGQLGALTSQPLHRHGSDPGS
measured_endpoint: EC50

Write down EC50 measured for item "Cc1nc(-c2cnc(NC(C)C)n(C)c2=O)ccc1Oc1ccnc(-c2cnn(C)c2)c1" > 25 µM

Attribution: paper PMC9398179
